This collection of values is drawn from ChEMBL document CHEMBL1177713.

# clearance per entry
assay: Clearance in CD rat at 5 mg/kg, iv by LC-MS/MS analysis; type: ADME, organism-based; parameters: dose 5 mg/kg, route intravenous; details: in vivo
readout_label: clearance (mL/min/kg)

>>> measured_result("Cc1ccc(C(=O)Nc2ccc(CN3CCN(C)CC3)c(C(F)(F)F)c2)cc1C#Cc1cnc2[nH]c(=O)[nH]c2c1")
40.7
>>> measured_result("CCN1CCN(Cc2ccc(NC(=O)c3ccc(C)c(C#Cc4cnc5cccnn45)c3)cc2C(F)(F)F)CC1")
17
>>> measured_result("Cc1ccc(C(=O)Nc2ccc(CN3CCN(C)CC3)c(C(F)(F)F)c2)cc1C#Cc1cnc2cccnn12")
10.8
>>> measured_result("Cc1ccc(C(=O)Nc2ccc(CN3CCN(CCO)CC3)c(C(F)(F)F)c2)cc1C#Cc1cnc2cccnn12")
25.5

* * *

assay: Half life in mouse at 30 mg/kg, po by LC-MS/MS analysis; conditions: in vivo
readout_label: half-life (h)

>>> measured_result("CN1CCN(Cc2ccc(NC(=O)c3ccc(Cl)c(C#Cc4cnc5cccnn45)c3)cc2C(F)(F)F)CC1")
2.9
>>> measured_result("Cc1ccc(C(=O)Nc2ccc(CN3CCN(CCO)CC3)c(C(F)(F)F)c2)cc1C#Cc1cnc2cccnn12")
2.4
>>> measured_result("Cc1ccc(C(=O)Nc2ccc(CN3CCN(C)CC3)c(C(F)(F)F)c2)cc1C#Cc1cnc2cnccn12")
2.7
>>> measured_result("Cc1ccc(C(=O)Nc2ccc(CN3CCN(C)CC3)c(C(F)(F)F)c2)cc1C#Cc1cnc2ccccn12")
2.9

* * *

tested on: Mus musculus; test: Plasma concentmouseion in CD mouse at 30 mg/kg, po after 2 hrs by LC-MS/MS analysis
readout_label: concentration at 2 h (ng/mL)

>>> measured_result("CN1CCN(Cc2ccc(NC(=O)c3ccc(F)c(C#Cc4cnc5cccnn45)c3)cc2C(F)(F)F)CC1")
2480
>>> measured_result("CCN1CCN(Cc2ccc(NC(=O)c3ccc(C)c(C#Cc4cnc5cccnn45)c3)cc2C(F)(F)F)CC1")
622

* * *

tested on: Rattus norvegicus; test: Dose normalized AUC (0 to 24 hrs) in CD rat at 15 mg/kg, po by LC-MS/MS analysis; format: ADME, organism-based; design: time < 24 hr, dose 15 mg/kg, route oral; conditions: in vivo
readout_label: log10 of AUC (log10 of the value in ng·h/mL/mg/kg)

>>> measured_result("Cc1ccc(C(=O)Nc2ccc(CN3CCN(C)CC3)c(C(F)(F)F)c2)cc1C#Cc1cnc2cccnn12")
2.44
>>> measured_result("Cc1ccc(C(=O)Nc2cc(-n3ccnc3)cc(C(F)(F)F)c2)cc1C#Cc1cnc2ccccn12")
3.76
>>> measured_result("CN1CCN(Cc2ccc(NC(=O)c3ccc(Cl)c(C#Cc4cnc5cccnn45)c3)cc2C(F)(F)F)CC1")
2.83
>>> measured_result("Cc1ccc(C(=O)Nc2ccc(CN3CCN(C)CC3)c(C(F)(F)F)c2)cc1C#Cc1cnc2cnccn12")
1.76
>>> measured_result("Cc1ccc(C(=O)Nc2cc(-n3ccnc3)cc(C(F)(F)F)c2)cc1C#Cc1cnc2c(N)cccn12")
2.18
>>> measured_result("Cc1ccc(C(=O)Nc2cc(C(F)(F)F)ccn2)cc1C#Cn1cnc2c(NC3CC3)ncnc21")
1.07
>>> measured_result("CN1CCN(Cc2ccc(NC(=O)c3ccc(F)c(C#Cc4cnc5cccnn45)c3)cc2C(F)(F)F)CC1")
3.23
>>> measured_result("CCN1CCN(Cc2ccc(NC(=O)c3ccc(C)c(C#Cc4cnc5cccnn45)c3)cc2C(F)(F)F)CC1")
2.71
>>> measured_result("Cc1ccc(C(=O)Nc2ccc(CN3CCN(CCO)CC3)c(C(F)(F)F)c2)cc1C#Cc1cnc2cccnn12")
2.16
>>> measured_result("Cc1ccc(C(=O)Nc2ccc(CN3CCN(C)CC3)c(C(F)(F)F)c2)cc1C#Cc1cnc2[nH]ccc2c1")
2.08
>>> measured_result("Cc1ccc(C(=O)Nc2ccc(CN3CCN(C)CC3)c(C(F)(F)F)c2)cc1C#Cc1cnc2ccccn12")
2.59
